Test system: A. baumannii AB027
Test: microbe, parasite or virus in culture
Format: cell-based, Acinetobacter baumannii
Settings: Acinetobacter baumannii, AB027, agent alone, one value per checkerboard plate

Compound	Assay System	MIC / µg/mL
CO[C@H]1/C=C/O[C@@]2(C)Oc3c(C)c(O)c4c(O)c(c(/C=N/N5CCN(C)CC5)c(O)c4c3C2=O)NC(=O)/C(C)=C\C=C\[C@H](C)[C@H](O)[C@@H](C)[C@@H](O)[C@@H](C)[C@H](OC(C)=O)[C@@H]1C	A. baumannii AB027	2
C[C@H]1[C@H](NC(=O)/C(=N\OC(C)(C)C(=O)O)c2csc(N)n2)C(=O)N1S(=O)(=O)O	A. baumannii AB027	1020
CC(C)(O/N=C(\C(=O)N[C@@H]1C(=O)N2C(C(=O)[O-])=C(C[n+]3ccccc3)CS[C@H]12)c1csc(N)n1)C(=O)O	A. baumannii AB027	2050
CC[C@H]1OC(=O)[C@H](C)[C@@H](O[C@H]2C[C@@](C)(OC)[C@@H](O)[C@H](C)O2)[C@H](C)[C@@H](O[C@@H]2O[C@H](C)C[C@H](N(C)C)[C@H]2O)[C@](C)(O)C[C@@H](C)C(=O)[C@H](C)[C@@H](O)[C@]1(C)O	A. baumannii AB027	8

----------
System: P. aeruginosa PAO1
Assay: microbe, parasite or virus in culture
Format: cell-based, Pseudomonas aeruginosa
Settings: Pseudomonas aeruginosa, PAO1, 18 h, agent alone, one value per checkerboard plate; read-out: MIC alone
Procedure: The adjuvant properties of the guanidinylated polymyxins were evaluated using the checkerboard assay as previously described. The bacterial solution was prepared as described in the antimicrobial susceptibility assay. […] After incubation, an Emax Plus microplate reader (Molecular Devices, Union City, CA, USA) was used to measure the OD at a wavelength of 590 nm to confirm the turbidity. […] The FIC of each agent is calculated by dividing its MIC when it is used in combination by its MIC when used alone. […]
Recorded measurements of log10 of MIC, one per entry
Endpoint Name: log10 of MIC (log10 of the value in µg/mL)

Compound	log10 of MIC
CO[C@H]1/C=C/O[C@@]2(C)Oc3c(C)c(O)c4c(O)c(c(/C=N/N5CCN(C)CC5)c(O)c4c3C2=O)NC(=O)/C(C)=C\C=C\[C@H](C)[C@H](O)[C@@H](C)[C@@H](O)[C@@H](C)[C@H](OC(C)=O)[C@@H]1C	1.20
NC[C@H]1O[C@H](O[C@H]2[C@H](O)[C@@H](O[C@H]3O[C@H](CO)[C@@H](O)[C@H](N)[C@H]3O)[C@H](N)C[C@@H]2N)[C@H](N)C[C@@H]1O	0.30
C[C@H]1c2cccc(O)c2C(=O)C2=C(O)[C@]3(O)C(=O)C(C(N)=O)=C(O)[C@@H](N(C)C)[C@@H]3[C@@H](O)[C@@H]21	0.90
C[C@H]1COc2c(N3CCN(C)CC3)c(F)cc3c(=O)c(C(=O)O)cn1c23	-0.30
CC(=O)NC[C@H]1CN(c2ccc(N3CCOCC3)c(F)c2)C(=O)O1	3.01
CCN1CCN(C(=O)N[C@@H](C(=O)N[C@@H]2C(=O)N3[C@@H]2SC(C)(C)[C@@H]3C(=O)O)c2ccccc2)C(=O)C1=O	0.60
CN(C)c1ccc(O)c2c1C[C@H]1C[C@H]3[C@H](N(C)C)C(O)=C(C(N)=O)C(=O)[C@@]3(O)C(O)=C1C2=O	1.20
C=C[C@]1(C)C[C@@H](OC(=O)CO)[C@]2(C)[C@H](C)CC[C@]3(CCC(=O)[C@H]32)[C@@H](C)[C@@H]1O	3.01
COc1c(N2C[C@@H]3CCCN[C@@H]3C2)c(F)cc2c(=O)c(C(=O)O)cn(C3CC3)c12	0.00
CC(C)(O/N=C(\C(=O)N[C@@H]1C(=O)N2C(C(=O)[O-])=C(C[n+]3ccccc3)CS[C@H]12)c1csc(N)n1)C(=O)O	0.30

----------
Tested on: P. aeruginosa PAO1
Assay: microbe, parasite or virus in culture
Format: cell-based, Pseudomonas aeruginosa
Details: Pseudomonas aeruginosa, PAO1, 18 h, agent alone, one value per checkerboard plate; read-out: MIC alone
Recorded measurements of MIC, one per entry
Endpoint Name: MIC (µg/mL)

Compound	Uom	Obs Value
CO[C@@H]1[C@@H](OC(N)=O)[C@@H](O)[C@H](Oc2ccc3c(O)c(NC(=O)c4ccc(O)c(CC=C(C)C)c4)c(=O)oc3c2C)OC1(C)C	µg/mL	1020
CCC[C@@H]1C[C@@H](C(=O)N[C@@H]([C@H]2O[C@H](SC)[C@H](O)[C@@H](O)[C@H]2O)[C@H](C)Cl)N(C)C1	µg/mL	1020
O=C(N[C@H](CO)[C@H](O)c1ccc([N+](=O)[O-])cc1)C(Cl)Cl	µg/mL	32
C[C@H]1[C@H](NC(=O)/C(=N\OC(C)(C)C(=O)O)c2csc(N)n2)C(=O)N1S(=O)(=O)O	µg/mL	4

The reported measurements were obtained from paper PMC9598282.
